Data provenance: PubChem BioAssay AID1963833

Quick reference: viability, T/C of the listed items.
Tested on: 883617-216-R-J1-PDC complex spheroid viability
Test: Anticancer human tumor 883617-216-R-J1-PDC patient-derived bladder carcinoma cell line growth inhibition [POLQ]
Conditions: second compound 0.0316 µM; first compound 10 µM; hits give low values
Description: Multicellular complex tumor spheroid response to Polymerase (POL) inhibitors (novobiocin, ART-558, RP6685) in combination with a variety of drugs and investigational agents in selected tumor cell lines The POL inhibitors (novobiocin, ART-558, and RP6685) were evaluated both individually and in combination with standard of care and investigational anticancer small molecules within a complex spheroid model of solid tumors. . […]
OUTCOME_MEASURE: viability, T/C (%)

• C#Cc1c(F)ccc2cc(O)cc(-c3ncc4c(N5CC6CCC(C5)N6)nc(OCC56CCCN5CC(F)C6)nc4c3F)c12 (stereo not drawn) + Nc1ccc(C#CCN(C(=O)Cc2ncc(C(F)(F)F)cc2C(F)(F)F)c2ccc(F)cc2)nn1 = 75.1
• COc1ccc([C@@H](O)c2cc(-c3ncnc4cc(N5CCOCC5)ccc34)c(F)cc2Cl)nn1 + Nc1ccc(C#CCN(C(=O)Cc2ncc(C(F)(F)F)cc2C(F)(F)F)c2ccc(F)cc2)nn1 = 36.6
• CCCS(=O)(=O)Nc1ccc(F)c(C(=O)c2c[nH]c3ncc(-c4ccc(Cl)cc4)cc23)c1F + Cc1cccc(N(C)C(=O)C2C(O)CCN2c2nc(C)cc(C(F)(F)F)c2C#N)c1 = 56.8

###

Test system: 883617-216-R-J1-PDC complex spheroid viability
Assay: Anticancer human tumor 883617-216-R-J1-PDC cell line growth inhibition [POLQ]
Details: second compound 0.316 µM; first compound 0.1 µM; hits give low values
Protocol: Multicellular complex tumor spheroid response to Polymerase (POL) inhibitors (novobiocin, ART-558, RP6685) in combination with a variety of drugs and investigational agents in selected tumor cell lines The POL inhibitors (novobiocin, ART-558, and RP6685) were evaluated both individually and in combination with standard of care and investigational anticancer small molecules within a complex spheroid model of solid tumors. . […]
OUTCOME_MEASURE: viability, T/C (%)

- CC1COCCN1c1cc(C2(O)CC3CCC(C2)O3)c2cnn(-c3ccn[nH]3)c2n1 (stereo not drawn) + COC1C(OC(N)=O)C(O)C(Oc2ccc3c(O)c(NC(=O)c4ccc(O)c(CC=C(C)C)c4)c(=O)oc3c2C)OC1(C)C: 53.1
- CC[C@@]1(O)C(=O)OCc2c1cc1n(c2=O)Cc2cc3c(CN(C)C)c(O)ccc3nc2-1 + COC1C(OC(N)=O)C(O)C(Oc2ccc3c(O)c(NC(=O)c4ccc(O)c(CC=C(C)C)c4)c(=O)oc3c2C)OC1(C)C: 65
- CCc1c2c(nc3ccc(O)cc13)-c1cc3c(c(=O)n1C2)COC(=O)[C@]3(O)CC + COC1C(OC(N)=O)C(O)C(Oc2ccc3c(O)c(NC(=O)c4ccc(O)c(CC=C(C)C)c4)c(=O)oc3c2C)OC1(C)C: 49.1

###

Test system: 883617-216-R-J1-PDC complex spheroid viability
Assay: Anticancer human tumor 883617-216-R-J1-PDC cell line growth inhibition [POLQ];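 note: spheroids exposed to compounds for seven days before readout; 100% = DMSO vehicle control viability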
Details: second compound 0.316 µM; first compound 10 µM; hits give low values
Each entry below carries its recorded viability, T/C.
OUTCOME_MEASURE: viability, T/C (%)

* O=C(Nc1ccc(O)c(NS(=O)(=O)c2ccc(F)cc2)c1)c1ccc(-c2ccccc2)cc1 + COC1C(OC(N)=O)C(O)C(Oc2ccc3c(O)c(NC(=O)c4ccc(O)c(CC=C(C)C)c4)c(=O)oc3c2C)OC1(C)C | 53.2
* CC1COCCN1c1cc(C2(S(C)(=N)=O)CC2)nc(-c2ccnc3[nH]ccc23)n1 (stereo not drawn) + Cc1cccc(N(C)C(=O)C2C(O)CCN2c2nc(C)cc(C(F)(F)F)c2C#N)c1 | 38.6
* Nc1ccn(C2OC(CO)C(O)C2(F)F)c(=O)n1 (stereo not drawn) + Cc1cccc(N(C)C(=O)C2C(O)CCN2c2nc(C)cc(C(F)(F)F)c2C#N)c1 | 35.5

###

Tested on: 883617-216-R-J1-PDC complex spheroid viability
Test: Anticancer human tumor 883617-216-R-J1-PDC cell line growth inhibition [POLQ];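 note: spheroids exposed to compounds for seven days before readout; 100% = DMSO vehicle control viability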
Conditions: second compound 0.1 µM; first compound 0.0316 µM; hits give low values
Overview of recorded viability, T/C for various molecules
OUTCOME_MEASURE: viability, T/C (%)

- CCc1cc2c(N3CCc4c(cc(Cn5ccnc5)cc4-c4cn(C)nc4C(F)(F)F)C3=O)cc(C)nc2c(OC)n1 + Cc1cccc(N(C)C(=O)C2C(O)CCN2c2nc(C)cc(C(F)(F)F)c2C#N)c1: 86.1
- COc1cccc(OCCCN)c1-c1cc(Nc2cnc(C#N)cn2)n[nH]1 + COC1C(OC(N)=O)C(O)C(Oc2ccc3c(O)c(NC(=O)c4ccc(O)c(CC=C(C)C)c4)c(=O)oc3c2C)OC1(C)C: 46.5
- O=C(c1cc(Cc2n[nH]c(=O)c3ccccc23)ccc1F)N1CCN(C(=O)C2CC2)CC1 + COC1C(OC(N)=O)C(O)C(Oc2ccc3c(O)c(NC(=O)c4ccc(O)c(CC=C(C)C)c4)c(=O)oc3c2C)OC1(C)C: 91
- O=c1[nH]cc(F)c(=O)[nH]1 + COC1C(OC(N)=O)C(O)C(Oc2ccc3c(O)c(NC(=O)c4ccc(O)c(CC=C(C)C)c4)c(=O)oc3c2C)OC1(C)C: 103
- O=C(Nc1ccc(O)c(NS(=O)(=O)c2ccc(F)cc2)c1)c1ccc(-c2ccccc2)cc1 + Nc1ccc(C#CCN(C(=O)Cc2ncc(C(F)(F)F)cc2C(F)(F)F)c2ccc(F)cc2)nn1: 106
- Cn1ncnc1[C@H]1c2n[nH]c(=O)c3cc(F)cc(c23)N[C@@H]1c1ccc(F)cc1 + Nc1ccc(C#CCN(C(=O)Cc2ncc(C(F)(F)F)cc2C(F)(F)F)c2ccc(F)cc2)nn1: 85.4
- COc1ccc([C@@H](O)c2cc(-c3ncnc4cc(N5CCOCC5)ccc34)c(F)cc2Cl)nn1 + Nc1ccc(C#CCN(C(=O)Cc2ncc(C(F)(F)F)cc2C(F)(F)F)c2ccc(F)cc2)nn1: 75.6
- O=c1[nH]cc(F)c(=O)[nH]1 + Nc1ccc(C#CCN(C(=O)Cc2ncc(C(F)(F)F)cc2C(F)(F)F)c2ccc(F)cc2)nn1: 102

###

Known viability, T/C of a selection of molecules
Tested on: 883617-216-R-J1-PDC complex spheroid viability
Test: Anticancer human tumor 883617-216-R-J1-PDC cell line growth inhibition [POLQ];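 note: spheroids exposed to compounds for seven days before readout; 100% = DMSO vehicle control viability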
Details: second compound 1 µM; first compound 0.316 µM; hits give low values
OUTCOME_MEASURE: viability, T/C (%)

* COc1cccc(OCCCN)c1-c1cc(Nc2cnc(C#N)cn2)n[nH]1 + Cc1cccc(N(C)C(=O)C2C(O)CCN2c2nc(C)cc(C(F)(F)F)c2C#N)c1 | 39.5
* CCc1cc2c(N3CCc4c(cc(Cn5ccnc5)cc4-c4cn(C)nc4C(F)(F)F)C3=O)ccnc2c(OC)n1 + Cc1cccc(N(C)C(=O)C2C(O)CCN2c2nc(C)cc(C(F)(F)F)c2C#N)c1 | 87.8
* CNCc1ccc(-c2[nH]c3cc(F)cc4c3c2CCNC4=O)cc1 + Cc1cccc(N(C)C(=O)C2C(O)CCN2c2nc(C)cc(C(F)(F)F)c2C#N)c1 | 89.5
* O=C(c1cc(Cc2n[nH]c(=O)c3ccccc23)ccc1F)N1CCN(C(=O)C2CC2)CC1 + COC1C(OC(N)=O)C(O)C(Oc2ccc3c(O)c(NC(=O)c4ccc(O)c(CC=C(C)C)c4)c(=O)oc3c2C)OC1(C)C | 109
* CCc1cc2c(N3CCc4c(cc(Cn5ccnc5)cc4-c4cn(C)nc4C(F)(F)F)C3=O)ccnc2c(OC)n1 + Nc1ccc(C#CCN(C(=O)Cc2ncc(C(F)(F)F)cc2C(F)(F)F)c2ccc(F)cc2)nn1 | 97.9

###

Test system: 883617-216-R-J1-PDC complex spheroid viability
Experiment: Anticancer human tumor 883617-216-R-J1-PDC cell line growth inhibition [POLQ];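 note: spheroids exposed to compounds for seven days before readout; 100% = DMSO vehicle control viability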
Conditions: second compound 0.316 µM; first compound 10 µM; hits give low values
The threshold is 70%. Values of viability, T/C beneath it are tagged class 1; values meeting or exceeding it are tagged class 0.

- CC1COCCN1c1cc(-c2ccnn2C)c2ccnc(-c3ccn[nH]3)c2n1 (stereo not given) + COC1C(OC(N)=O)C(O)C(Oc2ccc3c(O)c(NC(=O)c4ccc(O)c(CC=C(C)C)c4)c(=O)oc3c2C)OC1(C)C: class 1
- COc1ccc([C@@H](O)c2cc(-c3ncnc4cc(N5CCOCC5)ccc34)c(F)cc2Cl)nn1 + Cc1cccc(N(C)C(=O)C2C(O)CCN2c2nc(C)cc(C(F)(F)F)c2C#N)c1: class 1
- COc1cc2cc(C(=O)CCC(=O)O)sc2cc1OC + Cc1cccc(N(C)C(=O)C2C(O)CCN2c2nc(C)cc(C(F)(F)F)c2C#N)c1: class 0
- O=c1[nH]cc(F)c(=O)[nH]1 + Nc1ccc(C#CCN(C(=O)Cc2ncc(C(F)(F)F)cc2C(F)(F)F)c2ccc(F)cc2)nn1: class 0
- C#Cc1c(F)ccc2cc(O)cc(-c3ncc4c(N5CC6CCC(C5)N6)nc(OCC56CCCN5CC(F)C6)nc4c3F)c12 (stereo not given) + COC1C(OC(N)=O)C(O)C(Oc2ccc3c(O)c(NC(=O)c4ccc(O)c(CC=C(C)C)c4)c(=O)oc3c2C)OC1(C)C: class 1
- CC(C)n1c(=O)n(C)c2cnc3cc(F)c(-c4ccc(OCCCN5CCCCC5)nc4)cc3c21 + COC1C(OC(N)=O)C(O)C(Oc2ccc3c(O)c(NC(=O)c4ccc(O)c(CC=C(C)C)c4)c(=O)oc3c2C)OC1(C)C: class 0
- COc1ccc([C@@H](O)c2cc(-c3ncnc4cc(N5CCOCC5)ccc34)c(F)cc2Cl)nn1 + Nc1ccc(C#CCN(C(=O)Cc2ncc(C(F)(F)F)cc2C(F)(F)F)c2ccc(F)cc2)nn1: class 1
- COc1cc2cc(C(=O)CCC(=O)O)sc2cc1OC + COC1C(OC(N)=O)C(O)C(Oc2ccc3c(O)c(NC(=O)c4ccc(O)c(CC=C(C)C)c4)c(=O)oc3c2C)OC1(C)C: class 0
- COc1cc(C2c3cc4c(cc3C(OC3OC5COC(C)OC5C(O)C3O)C3COC(=O)C23)OCO4)cc(OC)c1O (stereo not given) + Cc1cccc(N(C)C(=O)C2C(O)CCN2c2nc(C)cc(C(F)(F)F)c2C#N)c1: class 1
- C=CC(=O)N1CCN(c2nc(=O)n(-c3c(C)ccnc3C(C)C)c3nc(-c4c(O)cccc4F)c(F)cc23)C(C)C1 (stereo not given) + COC1C(OC(N)=O)C(O)C(Oc2ccc3c(O)c(NC(=O)c4ccc(O)c(CC=C(C)C)c4)c(=O)oc3c2C)OC1(C)C: class 0
